# TARGET OF ASSAY: Muscarinic acetylcholine receptor M2 (Homo sapiens, UniProt P08172); note: assay procedure not described here
# Sequence (P08172 whole entry): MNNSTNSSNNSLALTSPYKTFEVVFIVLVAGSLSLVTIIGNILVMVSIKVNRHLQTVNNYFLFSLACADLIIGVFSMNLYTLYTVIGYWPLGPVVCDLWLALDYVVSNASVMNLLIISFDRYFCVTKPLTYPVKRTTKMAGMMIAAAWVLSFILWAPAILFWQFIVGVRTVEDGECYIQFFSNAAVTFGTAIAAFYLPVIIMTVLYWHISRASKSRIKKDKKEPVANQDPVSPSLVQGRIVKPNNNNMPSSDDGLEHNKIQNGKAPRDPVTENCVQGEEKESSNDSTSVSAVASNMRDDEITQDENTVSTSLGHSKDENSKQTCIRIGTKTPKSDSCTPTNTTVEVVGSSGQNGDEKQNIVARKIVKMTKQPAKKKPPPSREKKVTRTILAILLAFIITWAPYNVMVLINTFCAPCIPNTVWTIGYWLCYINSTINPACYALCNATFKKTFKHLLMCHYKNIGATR
# Assay type: functional, cell-based
Recorded AC50 values for a group of molecules are listed next.
TEST READOUT: AC50

COc1cc2nccc(Oc3ccc(NC(=O)C4(C(=O)Nc5ccc(F)cc5)CC4)cc3)c2cc1OC [CABOZANTINIB]
> 30 µM
CC12CC3CC(C)(C1)CC(N)(C3)C2 [MEMANTINE]
> 10 µM
CCOC(=O)c1cncn1[C@H](C)c1ccccc1 [ETOMIDATE]
> 10 µM
Cc1cc2cc3c(C)cc(=O)oc3c(C)c2o1
> 10 µM
CC(CCc1ccc(O)cc1)NCCc1ccc(O)c(O)c1 (stereo not given)
> 30 µM

====

# TARGET OF ASSAY: Alpha-2A adrenergic receptor (Homo sapiens); note: assay procedure not described here
# Sequence (P08913 whole entry): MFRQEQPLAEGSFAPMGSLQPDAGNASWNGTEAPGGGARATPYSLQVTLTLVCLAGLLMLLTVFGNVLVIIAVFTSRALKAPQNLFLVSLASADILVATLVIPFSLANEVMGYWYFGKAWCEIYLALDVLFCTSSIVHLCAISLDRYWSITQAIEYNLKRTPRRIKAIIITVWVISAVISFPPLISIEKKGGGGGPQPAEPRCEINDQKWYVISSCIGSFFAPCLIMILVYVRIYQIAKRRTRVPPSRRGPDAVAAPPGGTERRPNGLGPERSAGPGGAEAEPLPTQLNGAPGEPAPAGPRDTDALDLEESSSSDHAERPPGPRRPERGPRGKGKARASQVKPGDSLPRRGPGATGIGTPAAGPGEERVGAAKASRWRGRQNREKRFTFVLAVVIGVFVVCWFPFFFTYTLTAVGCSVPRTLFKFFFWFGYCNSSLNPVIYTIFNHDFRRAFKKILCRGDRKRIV
# Assay type: functional, cell-based
TEST READOUT: AC50

Cc1noc(NS(=O)(=O)c2ccc(N)cc2)c1C [SULFISOXAZOLE]
> 10 µM
C[C@@H](Oc1cc(-c2cnn(C3CCNCC3)c2)cnc1N)c1c(Cl)ccc(F)c1Cl [CRIZOTINIB]
> 30 µM
CC(=O)OCC(=O)[C@@]1(O)[C@H](C)C[C@H]2[C@@H]3CCC4=CC(=O)C=C[C@]4(C)[C@@]3(F)[C@@H](O)C[C@@]21C [DEXAMETHASONE ACETATE]
> 10 µM
CCCCCCCCCCCCCCCCCCCCCC(=O)Nc1ccn([C@@H]2O[C@H](CO)[C@@H](O)[C@@H]2O)c(=O)n1 [ENOCITABINE]
> 30 µM
C/N=C(\NC)NCc1ccccc1 [BETHANIDINE]
> 30 µM
O=C1CCc2cc(OCCCCc3nnnn3C3CCCCC3)ccc2N1 [CILOSTAZOL]
> 30 µM
OCc1cc(C(O)CNCCCCCCOCCCCc2ccccc2)ccc1O (stereo not given) [SALMETEROL]
> 10 µM
C[C@]12CCC(=O)C(O)=C1CC[C@@H]1[C@@H]2CC[C@]2(C)C(=O)CC[C@@H]12 [FORMESTANE]
> 30 µM
CN1C(C(=O)Nc2ccccn2)=C(O)c2ccccc2S1(=O)=O [PIROXICAM]
> 10 µM
C[C@H](Cc1ccc(O)c(O)c1)[C@@H](C)Cc1ccc(O)c(O)c1 [MASOPROCOL]
> 10 µM
COCC1=C(C(=O)O)N2C(=O)[C@@H](NC(=O)/C(=N\OC)c3csc(N)n3)[C@H]2SC1 [CEFPODOXIME]
> 30 µM
CC(C(=O)O)c1ccc(CC2CCCC2=O)cc1 (stereo not given) [LOXOPROFEN]
> 30 µM
C[C@H]1c2cccc(O)c2C(=O)C2=C(O)[C@]3(O)C(=O)C(C(N)=O)=C(O)[C@@H](N(C)C)[C@@H]3[C@@H](O)[C@@H]21 [DOXYCYCLINE]
> 10 µM
CCCN(CCC)C(=O)Cc1c(-c2ccc(Cl)cc2)nc2ccc(Cl)cn12 [ALPIDEM]
> 30 µM
COc1cc(N)c(Cl)cc1C(=O)NC1CCN(Cc2ccccc2)CC1 [CLEBOPRIDE]
> 30 µM
CCC(C)C(CC)C(N)=O (stereo not given) [VALNOCTAMIDE]
> 30 µM
CCC(=O)O[C@]1(C(=O)SCF)[C@H](C)C[C@H]2[C@@H]3C[C@H](F)C4=CC(=O)C=C[C@]4(C)[C@@]3(F)[C@@H](O)C[C@@]21C [FLUTICASONE PROPIONATE]
> 30 µM
CC(C)(C)C(=O)OCC(=O)[C@H]1CC[C@H]2[C@@H]3CCC4=CC(=O)CC[C@]4(C)[C@H]3CC[C@]12C [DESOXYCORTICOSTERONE PIVALATE]
> 10 µM
NC(=O)CN1CCCC1=O
> 30 µM
CCOC(=O)C1=C[C@]2(CC)CCCN3CCc4c(n1c1ccccc41)[C@@H]32 [VINPOCETINE]
> 30 µM

====

Recorded AC50 values for a group of compounds are listed next.
# TARGET OF ASSAY: Voltage-gated inwardly rectifying potassium channel KCNH2 (Homo sapiens, UniProt Q12809); note: assay procedure not described here
# Sequence (Q12809 whole entry): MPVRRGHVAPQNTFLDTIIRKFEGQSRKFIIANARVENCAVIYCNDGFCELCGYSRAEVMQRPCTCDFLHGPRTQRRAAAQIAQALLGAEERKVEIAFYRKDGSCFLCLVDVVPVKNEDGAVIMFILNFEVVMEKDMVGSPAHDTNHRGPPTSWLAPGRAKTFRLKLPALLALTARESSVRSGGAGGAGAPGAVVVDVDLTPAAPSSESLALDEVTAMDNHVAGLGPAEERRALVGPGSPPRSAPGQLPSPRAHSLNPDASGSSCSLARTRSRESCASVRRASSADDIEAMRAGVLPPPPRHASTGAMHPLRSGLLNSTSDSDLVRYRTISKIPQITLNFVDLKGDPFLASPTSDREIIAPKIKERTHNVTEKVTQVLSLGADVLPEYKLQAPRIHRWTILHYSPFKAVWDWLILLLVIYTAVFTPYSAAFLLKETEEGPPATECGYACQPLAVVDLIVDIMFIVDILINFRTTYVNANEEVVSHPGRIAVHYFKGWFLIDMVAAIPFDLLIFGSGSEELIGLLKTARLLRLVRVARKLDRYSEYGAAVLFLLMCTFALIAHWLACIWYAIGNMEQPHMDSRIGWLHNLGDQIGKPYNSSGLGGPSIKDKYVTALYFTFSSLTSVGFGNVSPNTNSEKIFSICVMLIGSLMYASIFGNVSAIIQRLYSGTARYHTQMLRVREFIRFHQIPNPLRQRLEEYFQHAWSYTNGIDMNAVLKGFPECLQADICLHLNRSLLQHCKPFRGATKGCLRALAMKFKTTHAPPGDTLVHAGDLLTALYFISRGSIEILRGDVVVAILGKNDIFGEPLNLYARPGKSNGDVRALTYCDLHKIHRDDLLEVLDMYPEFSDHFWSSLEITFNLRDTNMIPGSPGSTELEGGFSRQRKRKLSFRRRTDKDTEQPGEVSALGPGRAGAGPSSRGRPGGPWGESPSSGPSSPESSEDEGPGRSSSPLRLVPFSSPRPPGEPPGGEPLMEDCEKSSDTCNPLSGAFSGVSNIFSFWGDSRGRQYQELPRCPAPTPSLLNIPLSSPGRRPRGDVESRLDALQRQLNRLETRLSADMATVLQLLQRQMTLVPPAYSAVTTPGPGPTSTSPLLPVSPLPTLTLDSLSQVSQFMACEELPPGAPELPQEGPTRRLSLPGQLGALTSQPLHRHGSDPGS
# Type: functional
TEST READOUT: AC50

CCCCC(=O)O[C@]1(C(=O)CO)[C@@H](C)C[C@H]2[C@@H]3CCC4=CC(=O)C=C[C@]4(C)[C@@]3(F)[C@@H](O)C[C@@]21C [BETAMETHASONE VALERATE]
> 30 µM
CC(N)Cc1ccc(O)cc1 (centres undefined) [HYDROXYAMPHETAMINE]
> 30 µM
CCCN[C@H]1CCc2nc(N)sc2C1 [PRAMIPEXOLE]
> 30 µM
CC(=O)O[C@]1(C(C)=O)CC[C@H]2[C@@H]3C=C(Cl)C4=CC(=O)CC[C@]4(C)[C@H]3CC[C@@]21C [CHLORMADINONE ACETATE]
> 30 µM
CN(C)[C@@H]1C(O)=C(C(N)=O)C(=O)[C@@]2(O)C(O)=C3C(=O)c4c(O)ccc(Cl)c4[C@@](C)(O)[C@H]3C[C@@H]12
> 30 µM
CC(C)c1nc(N(C)S(C)(=O)=O)nc(-c2ccc(F)cc2)c1/C=C/[C@@H](O)C[C@@H](O)CC(=O)O
> 30 µM
CCC(=O)O[C@]1(C(=O)SCF)[C@H](C)C[C@H]2[C@@H]3C[C@H](F)C4=CC(=O)C=C[C@]4(C)[C@@]3(F)[C@@H](O)C[C@@]21C [FLUTICASONE PROPIONATE]
> 30 µM
OC[C@H]1O[C@@](CO)(O[C@H]2O[C@H](CO)[C@@H](O)[C@H](O)[C@H]2O)[C@@H](O)[C@@H]1O
> 30 µM
COc1ccc(CN(CCN(C)C)c2ccccn2)cc1
9.59 µM
O=C1CN=C(c2ccccc2)c2cc([N+](=O)[O-])ccc2N1
> 30 µM
c1ccc2c(c1)CCc1ccccc1N2C1CN2CCC1CC2 (centres undefined)
12 µM
COc1ccc(-c2noc(CC(=O)O)c2-c2ccc(OC)cc2)cc1
> 30 µM
C=CCN1CC[C@]23CCCC[C@H]2[C@H]1Cc1ccc(O)cc13
14 µM
Cc1cccc(N2CC(CO)OC2=O)c1 (centres undefined)
> 30 µM
Nc1c2ccccc2nc2ccccc12
12 µM
COc1ccc(CC2c3cc(OC)c(OC)cc3CC[N+]2(C)CCC(=O)OCCCCCOC(=O)CC[N+]2(C)CCc3cc(OC)c(OC)cc3C2Cc2ccc(OC)c(OC)c2)cc1OC (centres undefined)
0.16 µM
C[C@@H](NCCCc1cccc(C(F)(F)F)c1)c1cccc2ccccc12
1.3 µM
CCC(C)C(CC)C(N)=O (centres undefined) [VALNOCTAMIDE]
> 30 µM
O=C1CN(/N=C/c2ccc(-c3ccc([N+](=O)[O-])cc3)o2)C(O)=N1
> 30 µM
C[C@]12C=CC(=O)N[C@@H]1CC[C@@H]1[C@@H]2CC[C@]2(C)[C@@H](C(=O)Nc3cc(C(F)(F)F)ccc3C(F)(F)F)CC[C@@H]12 [DUTASTERIDE]
> 30 µM
[H]/N=C(\N/C(=N/[H])Nc1ccc(Cl)cc1)NC(C)C
19 µM
CC(C)(O)CNc1nc(Nc2ccnc(C(F)(F)F)c2)nc(-c2cccc(C(F)(F)F)n2)n1
> 30 µM
CC(CN1CC(=O)NC(=O)C1)N1CC(=O)NC(=O)C1 (centres undefined)
> 30 µM
CCCCC1C(=O)N(c2ccccc2)N(c2ccccc2)C1=O
> 30 µM

====

Recorded AC50 values for a group of compounds are listed next.
# TARGET OF ASSAY: Alpha-2C adrenergic receptor (Homo sapiens); note: assay procedure not described here
# Sequence (P18825 whole entry): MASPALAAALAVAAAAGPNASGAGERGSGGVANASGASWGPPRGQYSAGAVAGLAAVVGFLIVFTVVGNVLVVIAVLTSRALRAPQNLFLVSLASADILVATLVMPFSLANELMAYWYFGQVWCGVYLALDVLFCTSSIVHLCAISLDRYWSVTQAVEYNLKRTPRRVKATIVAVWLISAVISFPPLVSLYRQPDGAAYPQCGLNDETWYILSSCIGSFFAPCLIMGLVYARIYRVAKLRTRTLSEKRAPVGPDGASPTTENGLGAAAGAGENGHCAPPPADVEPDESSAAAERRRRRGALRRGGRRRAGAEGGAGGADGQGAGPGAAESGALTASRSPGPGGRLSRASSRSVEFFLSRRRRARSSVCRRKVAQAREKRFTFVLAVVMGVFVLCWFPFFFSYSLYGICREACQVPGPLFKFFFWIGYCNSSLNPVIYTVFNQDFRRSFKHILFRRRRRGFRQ
# Assay type: functional
TEST READOUT: AC50

CNCc1ccc(-c2[nH]c3cc(F)cc4c3c2CCNC4=O)cc1
> 10 µM
CN(CC1(C)CCCO1)S(=O)(=O)c1ccc(Cl)c(S(N)(=O)=O)c1 (stereo not given) [MEFRUSIDE]
> 30 µM
Cc1onc(-c2ccccc2)c1-c1ccc(S(N)(=O)=O)cc1
> 10 µM
CCCC(CCC)C(N)=O [VALPROMIDE]
> 10 µM
CCCCC1C(=O)N(c2ccccc2)N(c2ccccc2)C1=O
> 10 µM
